- measured.on: canine IL-4RA (construct not given) (canine)
- assay.name: SPR, combinatorial Fab-SASA clone

binder	unit.of.measurement	koff
AHF21173 (Fab, V domains shown, not shown: small tags and cut ends) VH: EVQLVESGGDLVKPGGSLRLSCVASGFTFRDYAMTWVRQAPGKGLQWVSLINGSGGKTYYADAVKGRFTISRDNAKNTLYLQMNSLRAEDTAVYYCAVDRKTKTIRPQYYGLWVWGQGTLVTVSS VL: DIVMTQTPLSLSVSPGETASISCRSSQSLTYSIGYNYLDWYLQKPGQSPQGLIYLGHKRASGVPDRFSGSGSGTDFTLRISRVEANDTGVYYCMQGLQSPLSFGQGTKLEIKR	s⁻¹	9.69e-05
AHF21186 (Fab, V domains shown, not shown: small tags and cut ends) VH: EVQLVESGGDLVKPGGSLRLSCVASGFTFRDYAMTWVRQAPGKGLQWVSLINGSGGKTYYADAVKGRFTISRDNAKNTLYLQMNSLRAEDTAVYYCAVDRLTKTIRPQYYGLWHWGQGTLVTVSS VL: DIVMTQTPLSLSVSPGETASISCRSSQSLLYSIGYNYLDWYLQKPGQSPQGLIYLGHKRASGVPDRFSGSGSGTDFTLRISRVEANDTGVYYCMQGLQSPLTFGQGTKLEIKR	s⁻¹	0.000148
AHF21178 (Fab, V domains shown, not shown: small tags and cut ends) VH: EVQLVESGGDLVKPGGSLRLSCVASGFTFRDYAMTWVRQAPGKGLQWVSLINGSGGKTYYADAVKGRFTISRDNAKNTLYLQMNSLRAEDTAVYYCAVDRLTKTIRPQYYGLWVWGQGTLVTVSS VL: DIVMTQTPLSLSVSPGETASISCRSSQSLTYSIGYNYLDWYLQKPGQSPQGLIYLGSKRASGVPDRFSGSGSGTDFTLRISRVEANDTGVYYCMQGLQSPLSFGQGTKLEIKR	s⁻¹	8.27e-05

Data origin: patent US20250188176A1
